# TARGET UNDER TEST: Bcl-w (Homo sapiens)
# Construct: gene BCL2L2; Purified recombinant His-tagged Bcl-w
# Sequence (Q92843 2-193): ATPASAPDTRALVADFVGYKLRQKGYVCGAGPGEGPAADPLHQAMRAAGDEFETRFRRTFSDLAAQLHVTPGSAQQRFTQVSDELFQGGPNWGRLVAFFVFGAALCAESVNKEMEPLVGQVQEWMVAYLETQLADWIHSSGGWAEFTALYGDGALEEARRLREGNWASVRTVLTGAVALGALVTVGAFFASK
# TEST: biochemical
# Parameters: AlphaLISA competitive displacement of biotin-tagged BAD or BIM peptide from His-tagged Bcl-2 family protein
# Protocol: Purified recombinant His-tagged Bcl-xl, His-tagged Bcl-2 and His-tagged Bcl-w (Cat. No. SRP0187 for Bcl-xl, Cat. No. SRP0186 for Bcl-2 and Cat. No. B1059 for Bcl-w, Sigma-Aldrich) were incubated with increasing concentrations of compounds and a fixed concentration of biotin-tagged BAD (Cat No. SQ-ASPE-66592-1, AnaSpec, Fremont, CA) (for Bcl-xl) or BIM (Cat. No. SQ-ASPE-66592-2, AnaSpec) (for Bcl-2 and Bcl-w) peptides to a final volume of 40 µL in 96-well PCR plates. […]
MEASUREMENT NAME: Ki (nM)
Give the quantity in nM, number only.

Problem: # get_value(readout='Ki', item= CC1(C)CCC(c2ccc(Cl)cc2)=C(CN2CCN(c3ccc(C(=O)NS(=O)(=O)c4ccc(N[C@H](CCN5CCOCC5)CSc5ccccc5)c(S(=O)(=O)C(F)(F)F)c4)cc3)CC2)C1 )
Result: 8.5
